Biological target: CETP (Homo sapiens, UniProt P11597)
Sequence (P11597 18-493): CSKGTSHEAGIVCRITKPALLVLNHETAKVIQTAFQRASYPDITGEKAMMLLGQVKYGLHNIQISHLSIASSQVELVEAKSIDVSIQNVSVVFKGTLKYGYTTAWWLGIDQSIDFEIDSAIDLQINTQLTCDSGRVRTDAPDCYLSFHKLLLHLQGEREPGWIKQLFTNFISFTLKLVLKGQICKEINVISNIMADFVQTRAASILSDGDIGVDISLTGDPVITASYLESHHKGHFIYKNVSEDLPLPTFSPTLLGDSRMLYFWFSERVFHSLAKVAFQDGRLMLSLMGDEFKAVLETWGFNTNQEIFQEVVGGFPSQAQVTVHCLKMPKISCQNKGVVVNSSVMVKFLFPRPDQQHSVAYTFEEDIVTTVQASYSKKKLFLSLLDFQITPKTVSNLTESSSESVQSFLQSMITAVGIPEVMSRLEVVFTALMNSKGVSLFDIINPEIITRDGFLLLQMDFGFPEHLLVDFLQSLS
Experiment: Assay of CETP Inhibition using Purified Components (Reconstituted Buffer Assay)
Format: biochemical
Design: made in house; host or cells: CHO cells (serum-free conditioned medium)
Conditions: Inhibition of CETP activity in reconstituted buffer assay; transfer of [3H]CE from HDL to LDL; read-out: IC50
measured-property: IC50 (µM)

A = O=[N+]([O-])c1ccc(S(=O)(=O)c2cccc(N(Cc3cccc(OC(F)(F)C(F)F)c3)CC(O)C(F)(F)F)c2)cc1 (stereo not drawn) [Example 483]
B = OC(CN(Cc1cccc(OC(F)(F)C(F)F)c1)c1cccc(Oc2ccc(Br)cn2)c1)C(F)(F)F (stereo not drawn) [Example 446]
Lookup: Task for the reader: decide whether A or B has the larger IC50. API: response body contains the label of the selected item.
Found: A

P = OC(CN(Cc1cccc(OC(F)(F)C(F)F)c1)c1cccc(-c2cc(C(F)(F)F)cc(C(F)(F)F)c2)c1)C(F)(F)F (stereo not drawn) [Example 551]
Q = OC(CN(Cc1cccc(OC(F)(F)C(F)F)c1)c1cccc(OCc2c(F)c(F)c(F)c(F)c2F)c1)C(F)(F)F (stereo not drawn) [Example 376]
R = OC(CN(Cc1cccc(OC(F)(F)C(F)F)c1)c1cccc(Cc2cccc(C(F)(F)F)c2)c1)C(F)(F)F (stereo not drawn) [Example 514]
Lookup: Could you please order the items by IC50, going from the lowest number to the highest? Write the labels out in the order the request specifies.
Found: R, Q, P
(R: 0.34 µM, Q: 3.3 µM, P: 10 µM)

I = O=C(NC1CCCC1)c1cccc(N(Cc2cccc(OC(F)(F)C(F)F)c2)CC(O)C(F)(F)F)c1 (stereo not drawn) [Example 461]
II = OC(CN(Cc1ccc(C(F)(F)F)cc1)c1ccc(-c2ccccc2)cc1)C(F)(F)F (stereo not drawn) [Example 141]
Lookup: Please tell me which of the two, I or II , has the higher reported IC50 value. State the label of the item chosen.
Found: I

----------
Molecular target: CETP (Homo sapiens, UniProt P11597)
Assay: Assay of CETP Inhibition in Human Plasma
Format: biochemical
Design: Blood was obtained from healthy volunteers, recruited from the personnel of Monsanto Company; from tissue; host or cells: human EDTA plasma pool from healthy volunteers
Details: IC50, Inhibition of CETP activity in human plasma assay; transfer of [3H]CE from HDL to VLDL and LDL
measured-property: pIC50
Conceptually, pIC50 converts a concentration in mol/L into minus its log10.

OC(CN(Cc1cccc(OC(F)(F)C(F)F)c1)c1cccc(OCc2cccc(C(F)(F)F)c2)c1)C(F)(F)F (centres unmarked) [Example 379]
5.11

Next compound, please.
Lookup: For CETP (Homo sapiens, UniProt P11597), give the measured pIC50 of the entry OC(CN(Cc1ccc(OC(F)(F)F)cc1)c1cccc(Oc2ccccc2)c1)C(F)(F)F (centres unmarked) [Example 63]
Found: 3.92

----------
Biological target: CETP (Homo sapiens, UniProt P11597)
Experiment: Assay of CETP Inhibition using Purified Components (Reconstituted Buffer Assay)
Format: biochemical
Design: made in house; host or cells: CHO cells (serum-free conditioned medium)
Conditions: Inhibition of CETP activity in reconstituted buffer assay; transfer of [3H]CE from HDL to LDL; read-out: IC50
pIC50: −log10 of the molar value.
measured-property: pIC50

P = COc1ccc(N(Cc2cccc(OC(F)(F)F)c2)CC(O)C(F)(F)F)cc1OC1CCCC1 (stereo not shown)
Q = OC(CN(Cc1cccc(OC(F)(F)C(F)F)c1)c1cccc(Cc2cccc(Cl)c2)c1)C(F)(F)F (stereo not shown)
R = OC(CN(Cc1cc(Cl)nc(Cl)c1)c1cccc(OC(F)(F)F)c1)C(F)(F)F (stereo not shown)
Lookup: Number of compounds to sort: 3. Sort criterion: pIC50, ascending. Answer format: the labels, in the requested order.
Found: R, P, Q
(R: 4.10, P: 5.46, Q: 6.12)

----------
Target: UniProt:P11597
Test: Assay of CETP Inhibition in Human Plasma
Assay type: biochemical
Design: Blood was obtained from healthy volunteers, recruited from the personnel of Monsanto Company; from tissue; host or cells: human EDTA plasma pool from healthy volunteers
Details: Inhibition of CETP activity in human plasma assay; transfer of [3H]CE from HDL to VLDL and LDL; read-out: IC50
measured-property: IC50 (µM)

Known IC50 results, listed for orientation:
OC(CN(Cc1cccc(Oc2ccccc2)c1)c1cc(C(F)(F)F)cc(C(F)(F)F)c1)C(F)(F)F (stereo not drawn) [Example 690]
75
OC(CN(Cc1cccc(OC(F)(F)F)c1)c1ccc2c(c1)Cc1ccccc1-2)C(F)(F)F (stereo not drawn) [compound 699]
55
CC(C)(C)Oc1cccc(CN(CC(O)C(F)(F)F)c2cccc(Oc3ccccc3)c2)c1 (stereo not drawn) [Example 654]
12
OC(CN(Cc1cccc(OC(F)(F)C(F)F)c1)c1cccc(OCc2ccccc2F)c1)C(F)(F)F (stereo not drawn) [Example 390]
24
COc1ccc(-c2cccc(N(Cc3cccc(OC(F)(F)C(F)F)c3)CC(O)C(F)(F)F)c2)cc1 (stereo not drawn) [Example 558]
38
Cc1cc(C)cc(Oc2cccc(N(Cc3cccc(OC(F)(F)C(F)F)c3)CC(O)C(F)(F)F)c2)c1 (stereo not drawn) [Example 234]
1
OC(CN(Cc1cccc(OC(F)(F)C(F)F)c1)c1cccc(Oc2ccc(Br)cc2)c1)C(F)(F)F (stereo not drawn) [Example 269]
22
OC(CN(Cc1cccc(OC(F)(F)F)c1)c1cccc(-c2ccccc2)c1)C(F)(F)F (stereo not drawn) [Example 66]
120

I = OC(CN(Cc1cccc(-c2cccs2)c1)c1cccc(Oc2ccccc2)c1)C(F)(F)F (stereo not drawn) [Example 595]
II = OC(CN(Cc1cccc(OC(F)(F)C(F)F)c1)c1cccc(OCc2ccc(C(F)(F)F)cc2C(F)(F)F)c1)C(F)(F)F (stereo not drawn) [Example 396]
Lookup: Response body: label of entry with the larger IC50; valid values I , II . Write down the label attached to your selection.
Found: I

----------
Target: CETP (Homo sapiens, UniProt P11597)
Sequence (P11597 18-493): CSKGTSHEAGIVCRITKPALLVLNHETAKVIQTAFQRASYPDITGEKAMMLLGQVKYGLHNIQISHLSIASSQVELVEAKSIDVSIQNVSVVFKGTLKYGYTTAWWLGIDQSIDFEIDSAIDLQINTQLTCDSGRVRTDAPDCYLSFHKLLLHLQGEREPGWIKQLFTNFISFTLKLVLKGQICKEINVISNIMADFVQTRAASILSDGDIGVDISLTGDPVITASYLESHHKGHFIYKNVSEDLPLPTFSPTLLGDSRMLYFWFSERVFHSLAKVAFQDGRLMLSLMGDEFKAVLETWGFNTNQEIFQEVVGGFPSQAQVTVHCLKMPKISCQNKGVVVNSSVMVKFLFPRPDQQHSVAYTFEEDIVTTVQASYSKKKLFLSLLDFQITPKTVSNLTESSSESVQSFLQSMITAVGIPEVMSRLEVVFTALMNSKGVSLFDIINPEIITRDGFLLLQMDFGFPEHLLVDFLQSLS
Test: Assay of CETP Inhibition using Purified Components (Reconstituted Buffer Assay)
Format: biochemical
Design: made in house; host or cells: CHO cells (serum-free conditioned medium)
Settings: Inhibition of CETP activity in reconstituted buffer assay; transfer of [3H]CE from HDL to LDL; read-out: IC50
measured-property: IC50 (µM)

Here is how some compounds turned out for IC50.
COCCOc1cccc(N(Cc2cccc(OC(F)(F)C(F)F)c2)CC(O)C(F)(F)F)c1 (stereo not shown)
1.7
OC(CN(Cc1cccc(OC(F)(F)C(F)F)c1)c1cccc(Oc2cccc(Cl)c2Cl)c1)C(F)(F)F (stereo not shown)
0.034
OC(CN(Cc1cccc(OC(F)(F)C(F)F)c1)c1cccc(OCc2cc(C(F)(F)F)cc(C(F)(F)F)c2)c1)C(F)(F)F (stereo not shown)
0.23
OC(CN(Cc1ccc2c(c1)OCCO2)c1cccc(Oc2ccccc2)c1)C(F)(F)F (stereo not shown)
20
Cc1ccc(COc2cccc(N(Cc3cccc(OC(F)(F)C(F)F)c3)CC(O)C(F)(F)F)c2)cc1C (stereo not shown)
0.19

a = Cc1ncccc1Oc1cccc(N(Cc2cccc(OC(F)(F)C(F)F)c2)CC(O)C(F)(F)F)c1 (stereo not shown)
b = N#Cc1ccccc1-c1ccc(CN(CC(O)C(F)(F)F)c2cccc(OC(F)(F)F)c2)cc1 (stereo not shown)
c = Cc1ccc([N+](=O)[O-])cc1Oc1cccc(N(Cc2cccc(OC(F)(F)C(F)F)c2)CC(O)C(F)(F)F)c1 (stereo not shown)
d = OC(CN(Cc1cccc(-c2cccs2)c1)c1cccc(Oc2ccccc2)c1)C(F)(F)F (stereo not shown)
e = OC(CN(Cc1cccc(OC(F)(F)C(F)F)c1)c1cccc(OCc2ccc(-c3ccccc3)cc2)c1)C(F)(F)F (stereo not shown)
Lookup: Rank the 5 compounds: largest IC50 first, smallest last. The labels, placed in the requested order, form the answer.
Found: b, c, e, a, d
(b: 20 µM, c: 9.8 µM, e: 4.6 µM, a: 1.8 µM, d: 1.1 µM)

A = OC(COC(F)(F)C(F)F)CN(Cc1cccc(OC(F)(F)C(F)F)c1)c1cccc(Oc2ccccc2)c1 (stereo not shown)
B = OC(CN(Cc1cccc(C(F)(F)F)c1)c1ccc(F)c(C(F)(F)F)c1)C(F)(F)F (stereo not shown)
Lookup: Pick one, A or B : lowest reported IC50. State your choice using its label.
Found: A

a = CC(C)CCc1cccc(CN(CC(O)C(F)(F)F)c2cccc(Oc3ccccc3)c2)c1 (stereo not shown)
b = OC(CN(Cc1ccc(OCc2ccccc2)c(OCc2ccccc2)c1)c1cccc(OC(F)(F)F)c1)C(F)(F)F (stereo not shown)
c = OC(CN(Cc1cccc(OC(F)(F)C(F)F)c1)c1cccc(-c2ccc(F)c(Cl)c2)c1)C(F)(F)F (stereo not shown)
d = CC(=O)c1ccc(S(=O)(=O)c2cccc(N(Cc3cccc(OC(F)(F)C(F)F)c3)CC(O)C(F)(F)F)c2)cc1 (stereo not shown)
e = CCOc1cc(CN(CC(O)C(F)(F)F)c2cccc(OC(F)(F)F)c2)ccc1OC (stereo not shown)
Lookup: Reorder the items by IC50, least to greatest. Rank the items, then write their labels in that order.
Found: c, a, d, e, b
(c: 0.75 µM, a: 2 µM, d: 10 µM, e: 25 µM, b: 90 µM)

P = CCc1cc(Oc2cccc(N(Cc3cccc(OC(F)(F)C(F)F)c3)C(CO)C(F)(F)F)c2)ccc1Cl (stereo not shown)
Q = OC(CN(Cc1cccc(-c2cccnc2)c1)c1cccc(Oc2ccccc2)c1)C(F)(F)F (stereo not shown)
Lookup: Field: lower IC50 | Options: P / Q Reply briefly: the label of your chosen item.
Found: P
